- test summary: time course of DHA degradation in malaria culture, measured by icELISA
- Format: in vitro ADME, Plasmodium falciparum
- measurement parameters: red blood cells in culture medium at 5% hematocrit
outcome measure: half-life at 200 nM
// return the numeric value with its unit appended

Enquiry: Recorded half-life at 200 nM for C[C@H]1[C@@H](O)O[C@@H]2O[C@@]3(C)CC[C@H]4[C@H](C)CC[C@@H]1[C@@]24OO3 [Dihydroartemisinin] , please?
Return: 4.55 h

###

Reported IC50 values are given for each entry in this list.
- Test system: mAb 2G11G4
- test summary: indirect competitive ELISA
- Type: binding, mouse
- measurement parameters: icELISA, mAb 2G11G4, coating antigen 9-O-succinyldihydroartemisinin-OVA
Write the answer as a number in ng/mL, unit excluded.

molecule	units of measure	assay value
C[C@H]1[C@H](OC(=O)CCC(=O)O)O[C@@H]2O[C@@]3(C)CC[C@H]4[C@H](C)CC[C@@H]1[C@@]24OO3 [Artesunate]	ng/mL	70.4

Field: next molecule
Enquiry: Recorded IC50 for C[C@@H]1CC[C@H]2[C@@H](C)C(=O)O[C@@H]3O[C@@]4(C)CC[C@@H]1[C@]32OO4 [Artemisinin] , please?
Return: 2.22

###

- test summary: time course of DHA degradation in malaria culture, measured by icELISA
- Format: in vitro ADME, Plasmodium falciparum
- measurement parameters: culture medium only (no cells)
outcome measure: half-life at 200 nM
// return the numeric value with its unit appended

Enquiry: Recorded half-life at 200 nM for C[C@H]1[C@@H](O)O[C@@H]2O[C@@]3(C)CC[C@H]4[C@H](C)CC[C@@H]1[C@@]24OO3 [Dihydroartemisinin] , please?
Return: 5.56 h
